Give PBM binding z-score for every item shown.
test system: RARb homodimer (NR concentration 270 nM); assay: PBM binding z-score (relative to random genomic background probes); higher = stronger binding; sequences stand for … in GC…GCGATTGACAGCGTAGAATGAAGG
// no unit string in output, number only

Looking up ATCTCTAGGTAGCCAAGTTCAGTGAATGCCGAAC , I found its PBM binding z-score recorded as 0.866

Entry CCAGACAAGTGAGAAGGTAACTCAGCCTCGATTA — recorded PBM binding z-score = 0.174

PBM binding z-score for TCAATGAGGTTATAAGATCAGGGAACGTTGCAAA is 0.57

PBM binding z-score for TCTAGCAGGCAAGAGGGTCACTCAAGAGGTACGG is 2.42

Query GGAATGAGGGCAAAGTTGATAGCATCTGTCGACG yields PBM binding z-score of 1.42

PBM binding z-score reported for this sequence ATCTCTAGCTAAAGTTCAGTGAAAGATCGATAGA : 2.45

----------
test system: RXRa DBDmut IVT, anti-RXR (DBD mutation: RXRa K156A/R161A, NR concentration 90 nM); assay: PBM binding z-score (relative to random genomic background probes); higher = stronger binding; sequences stand for … in GC…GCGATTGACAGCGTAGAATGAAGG
Reported Endpoint: PBM binding z-score
Give a plain numeric answer without units written out.

Kindly note the recorded PBM binding z-score for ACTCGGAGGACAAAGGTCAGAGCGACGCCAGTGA , which is 1.24

Entry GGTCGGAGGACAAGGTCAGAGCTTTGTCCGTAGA ; PBM binding z-score = 0.467

Record CGTCCAAGGTCGAGGTCAGTGAAAGAGACTCGAA , field PBM binding z-score: 2.57

Data point: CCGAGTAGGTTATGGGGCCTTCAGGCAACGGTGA ; PBM binding z-score = -0.932

So, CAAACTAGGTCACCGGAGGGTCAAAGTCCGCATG ? Its PBM binding z-score was 1.19

PBM binding z-score measured on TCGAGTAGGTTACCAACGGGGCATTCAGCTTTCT = 0.191

Reported PBM binding z-score of CTACCAAGGTGAACAAGGTGGTTGATTACTATTC : 0.305

PBM binding z-score reported for this sequence CCTCGGAGGACAGAAGCTCAGAGCTGTCCGCTTT : -0.29

response.value for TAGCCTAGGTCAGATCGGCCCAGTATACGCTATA (field: PBM binding z-score) = -0.434

For CAAACTAGGTCAAGAGGTCCAAGTCCGCTTCCCG the sequence record lists PBM binding z-score as 1.42

Noted for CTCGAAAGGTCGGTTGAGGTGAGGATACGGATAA : its PBM binding z-score reads 0.698

For record CTACCAAGGTGAACTAGGTCGTTGATTACTATTC the listed PBM binding z-score is 0.925

Item: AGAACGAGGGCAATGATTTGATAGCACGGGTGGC | PBM binding z-score: 1.64

// sample TAGCCTATGTCATTCAGGGGCCAGTATAGAAAGC , its PBM binding z-score was -0.121

PBM binding z-score measured on TTACCAAGGTGAAAGGTCTTTGATGCACGCCTTG = -0.125

Value of measured PBM binding z-score for the entry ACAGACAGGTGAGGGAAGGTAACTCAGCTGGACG : -0.769

Form field PBM binding z-score, entry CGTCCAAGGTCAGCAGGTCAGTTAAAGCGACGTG : 2.34

For this sequence ( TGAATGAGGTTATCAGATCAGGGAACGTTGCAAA ), measured PBM binding z-score is 0.731

Entry TCTGCGAGGTCAGTTGGTCAGCTAACGAGCTGCC ; PBM binding z-score = 2.8

Sure, the documented PBM binding z-score for TTACCATGGTGAAAGGTCGTTGATGCACGCCTTG is 0.434

Record summary for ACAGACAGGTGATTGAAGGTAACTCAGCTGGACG : reported PBM binding z-score = -0.0738

The value of PBM binding z-score measured for the sequence CCTGCTAGGTCAATGGTCAGCTTAAGCAGCTCGC turned out to be 2

Given item TGCATGAGGTTAAAGATCAGGGAACGTGGCGTCG , the value recorded as its PBM binding z-score is 1.43

Query CAAACTAGGTCAAAGGTCACAGTCGAGCCAACCA yields PBM binding z-score of 2.94

CGAACGAGCGCATGAGTTGATAGCAAATGCCGAT yielded PBM binding z-score of 0.162

Quick note, PBM binding z-score for TCAGACAAGTGAAGGTAACTCAGGTACGCAGTCG landed at 1.1
